Recorded values, source patent US11370774B2.

The listing below reports IC50 for compounds tested on Factor D (Homo sapiens (Human)).
Sequence (P00746 26-253): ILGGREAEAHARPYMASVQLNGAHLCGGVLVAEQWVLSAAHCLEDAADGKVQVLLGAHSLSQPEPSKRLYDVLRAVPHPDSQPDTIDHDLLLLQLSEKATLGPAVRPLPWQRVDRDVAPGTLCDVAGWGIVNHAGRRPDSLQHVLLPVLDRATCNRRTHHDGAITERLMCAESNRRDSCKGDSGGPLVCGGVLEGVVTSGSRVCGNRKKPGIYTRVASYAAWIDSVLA

Study these solved cases before continuing.
# compound, experimentalValue
measured = [
    ("NCc1cccc(-c2cc(COc3cc(C(F)(F)F)ccc3CC(=O)O)cc3ccoc23)c1 [Compound 288f]", "< 1000 nM"),
    ("NCc1cccc(-c2cc(NC(=O)N3CCCC3CC(=O)O)cc3ccoc23)c1 (stereo not shown) [Compound 407d]", "> 10000 nM"),
    ("NCc1cccc(-c2cc(COc3c(F)cccc3CC(=O)O)cc3ccoc23)c1F [Compound 502c]", "< 1000 nM"),
    ("CC(=O)Nc1ccc(CC(=O)O)c(OCc2cc(-c3cccc(C(N)CF)c3)c3occc3c2)c1 (single isomer, unassigned; (+)) [Compound 434c]", "< 1000 nM"),
    ("NCc1cccc(-c2cc(C(=O)Nc3ccccc3CC(=O)O)cc3[nH]ccc23)c1 [Compound 9d]", "< 1000 nM"),
    ("NCc1cccc(-c2cc(COc3cc(-c4ccccc4)ccc3CC(=O)O)cc3ccoc23)c1 [Compound 263c]", "< 1000 nM"),
]

Entry Cc1ccc(S(=O)(=O)n2ccc3cc(COc4ccccc4CC(=O)O)cc(-c4cccc(CN)c4)c32)cc1 [Compound 146g] : IC50 on Factor D (Homo sapiens (Human)) = 1000 to 10000 nM
